Measured % damage, Polygonum values are reported for all entries that follow.
System: Polygonum
Experiment: Post-emergence test
Type: in vivo
Settings: greenhouse, 250 g of ai./ha, scored after three weeks
Description: Post-emergence Test Solvent: 5 parts by weight of acetone Emulsifier: 1 part by weight of alkylaryl polyglycol ether To produce a suitable preparation of active compound, 1 part by weight of active compound is mixed with the stated amount of solvent, the stated amount of emulsifier is added and the concentrate is diluted with water to the desired concentration. […] After three weeks, the degree of damage to the plants is scored visually in % damage in comparison to the untreated control. […]
Provide only the numeric value, understood in %.

// Input: CC(Nc1nc(N)nc(C(F)C(F)(F)F)n1)c1ccc(Cl)cc1 (stereo not drawn) [drawing 128] . Output its % damage, Polygonum only.
100

Supply measured % damage, Polygonum of CC(Cl)c1nc(N)nc(NC(C)c2ccc(Cl)cc2)n1 (stereo not drawn) [drawing 131] in your reply.
100

Tell me its % damage, Polygonum given CC(Cl)c1nc(N)nc(NC(C)c2ccc(Cl)cc2)n1 (stereo not drawn) [drawing 125] as the entry.
95
